experiment: 200 μL medium with five pre-germinated Arabidopsis (Ler) seedlings; conditions: 22°C, up to 3 d

| SEQUENCE_CONTENT | cleaved bond |
| --- | --- |
| EELRTVPSGPDPLHH | H-H81 |
| LHEEARTVPSGPDPLHH | H-H81 |
